method.summary: in vitro
experimental.context: mouse, hepatocytes
Description: Metabolic stability in mouse hepatocytes assessed as intrinsic clearance measured per million cells
observation.type: hepatocyte CLint (µL/min/1e6 cells)
All answers are understood in µL/min/1e6 cells, so give the number only.

Problem: For the compound `C[C@H](c1ccccc1)n1c(=O)c(N2CC3CC(C2)N3)nc2cnc(-c3cnc4cccnn34)cc21` , what hepatocyte CLint is on record?
Solution: 6

====

method.summary: in vitro
experimental.context: human, hepatocytes
Description: Metabolic stability in human hepatocytes assessed as intrinsic clearance measured per million cells
observation.type: hepatocyte CLint (µL/min/1e6 cells)
All answers are understood in µL/min/1e6 cells, so give the number only.

Problem: For the compound `C[C@H](c1ccccc1)n1c(=O)c(N2CC3CC(C2)N3)nc2cnc(-c3cnc4cccnn34)cc21` , what hepatocyte CLint is on record?
Solution: 9

====

As shown below, each of these compounds has a reported Kp uu value.
method.summary: in vivo
experimental.context: mouse, brain, 0.5 mg/kg
Description: Ratio of unbound drug concentration in brain to plasma of mouse at 0.5 mg/kg
The reply should be a number, written without any unit.

Consider the reported Kp uu for these compounds:
smiles.text: O=c1c(N2CC3CC(C2)N3)nc2cnc(-c3cnc4cccnn34)cc2n1Cc1ccccc1
experimental.result: 0.07
//
smiles.text: CN1C[C@H]2C[C@@H]1CN2c1nc2cnc(-c3cnc4cccnn34)cc2n(Cc2ccccc2)c1=O
experimental.result: 0.5

Problem: For the compound `C[C@H](c1ccccc1)n1c(=O)c(N2CC3CC(C2)N3)nc2cnc(-c3cnc4cccnn34)cc21` , what Kp uu is on record?
Solution: 0.026

====

experimental.context: human, microsomes
observation.type: CLH (mL/min/g)
All answers are understood in mL/min/g, so give the number only.

Consider the reported CLH for these compounds:
smiles.text: CN1CCN(c2nc3cnc(-c4cnc5cccnn45)cc3n(Cc3ccccc3)c2=O)CC1
observation.type: CLH
unit.descriptor: mL/min/g
experimental.result: 73

smiles.text: O=c1cnc2cnc(-c3cnc4cccnn34)cc2n1Cc1ccccc1
observation.type: CLH
unit.descriptor: mL/min/g
experimental.result: 34

smiles.text: O=c1c(N2CCNCC2)nc2cnc(-c3cnc4cccnn34)cc2n1Cc1ccccc1
observation.type: CLH
unit.descriptor: mL/min/g
experimental.result: 42

smiles.text: O=c1c(N2C[C@H]3C[C@@H]2CN3)nc2cnc(-c3cnc4cccnn34)cc2n1Cc1ccccc1
observation.type: CLH
unit.descriptor: mL/min/g
experimental.result: 16

smiles.text: C[C@H](c1ccccc1)n1c(=O)c(N2CC3CC(C2)N3)nc2cnc(-c3cnc4cccnn34)cc21
observation.type: CLH
unit.descriptor: mL/min/g
experimental.result: 21

Problem: For the compound `O=c1c(N2CCOCC2)nc2cnc(-c3cnc4cccnn34)cc2n1Cc1ccccc1` , what CLH is on record?
Solution: 29

Problem: For the compound `CN1C[C@H]2C[C@@H]1CN2c1nc2cnc(-c3cnc4cccnn34)cc2n(Cc2ccccc2)c1=O` , what CLH is on record?
Solution: 83

Problem: For the compound `O=c1c(N2CCC2)nc2cnc(-c3cnc4cccnn34)cc2n1Cc1ccccc1` , what CLH is on record?
Solution: 63

Problem: For the compound `O=c1c(N2CC3CC(C2)N3)nc2cnc(-c3cnc4cccnn34)cc2n1Cc1ccccc1` , what CLH is on record?
Solution: 22

Problem: For the compound `O=c1c(C(F)F)nc2cnc(-c3cnc4cccnn34)cc2n1Cc1ccccc1` , what CLH is on record?
Solution: 4

====

method.summary: in vitro
experimental.context: human, Caco-2
Description: Apparent permeability in human Caco-2 cells
As shown below, each of these compounds has a reported Papp value.
All answers are understood in ×10⁻⁶ cm/s, so give the number only.

smiles.text: O=c1c(N2CC3CC(C2)N3)nc2cnc(-c3cnc4cccnn34)cc2n1Cc1ccccc1
observation.type: Papp
experimental.result: 13.2
--
smiles.text: O=c1cnc2cnc(-c3cnc4cccnn34)cc2n1Cc1ccccc1
observation.type: Papp
experimental.result: 24.4
--
smiles.text: C[C@H](c1ccccc1)n1c(=O)c(N2CC3CC(C2)N3)nc2cnc(-c3cnc4cccnn34)cc21
observation.type: Papp
experimental.result: 8.3
--
smiles.text: CN1CCN(c2nc3cnc(-c4cnc5cccnn45)cc3n(Cc3ccccc3)c2=O)CC1
observation.type: Papp
experimental.result: 23.6
--
smiles.text: O=c1c(N2C[C@H]3C[C@@H]2CN3)nc2cnc(-c3cnc4cccnn34)cc2n1Cc1ccccc1
observation.type: Papp
experimental.result: 8.6

Problem: For the compound `O=c1c(C(F)F)nc2cnc(-c3cnc4cccnn34)cc2n1Cc1ccccc1` , what Papp is on record?
Solution: 13.9

Problem: For the compound `CN1C[C@H]2C[C@@H]1CN2c1nc2cnc(-c3cnc4cccnn34)cc2n(Cc2ccccc2)c1=O` , what Papp is on record?
Solution: 12.5

Problem: For the compound `O=c1c(N2CCNCC2)nc2cnc(-c3cnc4cccnn34)cc2n1Cc1ccccc1` , what Papp is on record?
Solution: 10.7
